Source of measurements: ChEMBL document CHEMBL3112573

Assay: Cytotoxicity against mouse J774 cells assessed as cell viability at MIC relative to control
Type: cell-based
Settings: read-out: Activity
endpoint_name: viability (%)
Enter your answer as a number in %; do not include the unit.

// solved cases for viability follow
{"compound": "CO[C@H]1/C=C/O[C@@]2(C)Oc3c(C)c(O)c4c(O)c(c(/C=N/N5CCN(C)CC5)c(O)c4c3C2=O)NC(=O)/C(C)=C\\C=C\\[C@H](C)[C@H](O)[C@@H](C)[C@@H](O)[C@@H](C)[C@H](OC(C)=O)[C@@H]1C [RIFAMPIN]", "measured": 86}
{"compound": "O=[N+]([O-])c1ccc2nc3c(c(-c4ccccc4)c2c1)CCCCC3", "measured": 79}
{"compound": "Clc1ccc2nc3c(c(-c4ccccc4)c2c1)CCC3", "measured": 79}

Next item in the queue.
Problem: Sample `O=[N+]([O-])c1ccc2nc3c(c(-c4ccccc4)c2c1)CCCC3` — what was its viability?
Result: 63
